These data points were gathered from patent US9340577B2.

Measured IC50 values are reported for all entries that follow.
biological target: DR7 (DRB1*0701) (Homo sapiens, UniProt P01903+P01911, A100R/A102G/A103Q/D57E/D86V/E43K/F76Y/K127E/L162R/M171V/P40G/Q125H/Q99D/R33Q/R42Y/R54Q/S133A/S66F/T210M/V115G/Y107V/Y59L/Y89S); assay: biochemical; assay type: binding
No end group written: not given here.
Value expressed in nM; do not type the unit.

For this sequence ( EVHVGGQVIVCPASV [Peptide 90.0015] ), measured IC50 is 187

====

molecular target: DRB1*1302 (Homo sapiens, UniProt P01903+P01911, A100E/A169T/K41T/L162R/M171V/P40S/Q125H/Q178H/Q39Y/Q99D/R42S/S66N/T262R/V115G/W38E/Y61H); assay: biochemical; type: binding
Sequence (P01903 26-254 limits assumed, other chains not shown): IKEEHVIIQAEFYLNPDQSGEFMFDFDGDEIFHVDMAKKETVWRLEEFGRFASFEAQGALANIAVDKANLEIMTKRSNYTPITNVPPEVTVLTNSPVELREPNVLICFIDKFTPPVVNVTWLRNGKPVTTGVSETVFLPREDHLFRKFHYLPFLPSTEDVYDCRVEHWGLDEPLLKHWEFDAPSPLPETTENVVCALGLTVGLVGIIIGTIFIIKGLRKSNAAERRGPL
No end group written: not given here.
measurement-name: IC50

For this sequence ( PHAFPFDKNGNPVYE [Peptide 90.0106] ), measured IC50 is 1390 nM

For this sequence ( PCHTTKLLHRDSVDS [Peptide 1601.07] ), measured IC50 is > 20000 nM

For this sequence ( GVNHQHLPARRAEPQ [Peptide 1543.05] ), measured IC50 is > 20000 nM

For this sequence ( FLSYFKLFLQGTPKH [Peptide 89.0132] ), measured IC50 is 1300 nM

Further cases:
For this sequence ( KIGMLDDATVPCWNY [Peptide 90.0040] ), measured IC50 is > 20000 nM

For this sequence ( SEIYIIEETTCTLVA [Peptide 90.0250] ), measured IC50 is 399 nM

For this sequence ( DRGIIILLLIRFRCS [Peptide 89.0062] ), measured IC50 is > 20000 nM

For this sequence ( PRWLCAGALVLAGGF [Peptide 68.0083] ), measured IC50 is > 20000 nM
